From: patent US20180339017A1

System name: human GLP-1 receptor (human, UniProt P43220 24-463)
Assay explanation: cell-based or functional assay
No end group written: not given here.
Record form. Attribute: EC50 hGLP1R (cAMP activity assay). Fill in for each entry.
Please give the number followed by its unit.

INPUT: I would be grateful if you could share the reported EC50 hGLP1R (cAMP activity assay) for HSQGTFTSDYSKYLDWRRAQDFVQWLLNT-NH2 [PD23] .
OUTPUT: 0.05 nM

INPUT: Do the same for HSQGIFFSDYSKYLDSRRAQDFVQWLMNT-NH2 [PD52] please
OUTPUT: 0.02 nM

INPUT: Do the same for HSQGTFTSDYSKYLDSRMAYDFVQWLMNT-NH2 [PD56] please
OUTPUT: 0.05 nM
